Entry source: ChEMBL document CHEMBL2146370

method notes: Cytotoxicity against human PBMC cells assessed as cell viability at 5 uM after 24 hrs by MTT assay
Type: cell-based
run parameters: read-out: Activity
Kindly state viability at 24 h, 5 µM for each of the entries shown.
Could you give me the number in %? Just the number is fine.

What does the data say about its viability at 24 h, 5 µM? Entry: `COc1ccc(-c2nc3cc(Oc4ccc5[nH]c(-c6ccc(OC)cc6)nc5c4)ccc3[nH]2)cc1`
96

What does the data say about its viability at 24 h, 5 µM? Entry: `O=c1[nH]cc(F)c(=O)[nH]1`
94

###

Kindly state viability at 72 h, 5 µM for each of the entries shown.
method notes: Cytotoxicity against human PBMC cells assessed as cell viability at 5 uM after 72 hrs by MTT assay
Assay type: cell-based
run parameters: read-out: Activity
Write down the value, and be sure its unit follows.

What does the data say about its viability at 72 h, 5 µM? Entry: `COc1ccc(-c2nc3cc(Oc4ccc5[nH]c(-c6ccc(OC)cc6)nc5c4)ccc3[nH]2)cc1`
79%

What does the data say about its viability at 72 h, 5 µM? Entry: O=c1[nH]cc(F)c(=O)[nH]1 [FLUOROURACIL]
76%
